- ASSAY_OVERVIEW: Acute toxicity on mice
- EXPERIMENTAL_SETUP: mouse, in vivo, po, observed 14 days
For each of the molecules below, state its LD50 at 336 h.
Expressed in mg/kg, but write only the number.

# molecule NNC(=S)n1nc(N2CCOCC2)nc1N ; its LD50 at 336 h = 1000

Noted for CN1CCN(c2nc(N)n(C(=S)N(C)N)n2)CC1 : its LD50 at 336 h reads 1000

# LD50 at 336 h (molecule: CSc1nc(N)n(C(=S)N(C)N)n1 ) is 300

Data point: CNN(C)C(=S)n1nc(N2CCOCC2)nc1N ; LD50 at 336 h = 1000

// field: LD50 at 336 h; key: CSc1nc(N)n(C(=S)NN)n1 ; value = 350
